- assayed.target: Fuc(a1-2)Gal(b1-3)GalNAc(a1-3)[Fuc(a1-2)]Gal(b1-4)GlcNAc
- test.description: glycan array binding signal (z-score within array); higher = stronger binding
- test.parameters: glycan notation: IUPAC condensed, linker removed
This excerpt belongs to a sample that is enriched for the strongest signals.
assay.readout: glycan array binding signal (z-score)
// no unit string in output, number only

ABA (Agaricus bisporus), Q00022 (protein) MTYTISIRVYQTTPKGFFRPVERTNWKYANGGTWDEVRGEYVLTMGGSGTSGSLRFVSSDTDESFVATFGVHNYKRWCDIVTNLTNEQTALVINQEYYGVPIRDQARENQLTSYNVANAKGRRFAIEYTVTEGDNLKANLIIG | 0.475
MpAFP NterminalRI GFP (Marinomonas primoryensis) (protein) MSDNQFPFATLGNAIGFITKLDGSVTVQSIDGQERVLKLGDPIFFGETVLTGGSGSVTIAFVDGTDVVIGGDSIVEMTDEIYNTGDNEDLVADSSSEIDALQNAILAGDDPTLIQDAPAAGNTLADQQRVDVSIERNDNSAQAGFGVDTQSSLPTYGYDTDNGNGGQATEREYSAPSLSRTLNQSPLLEHHHHHH | -0.525

Name the recorded glycan array binding signal (z-score) of the item DCIR1 (Mus musculus), Q9QZ15 (protein) MASEITYAEVKFKNESNSLHTYSESPAAPREKPIRDLRKPGSPSLLLTSLMLLLLLLAITFLVAFIIYFQKYSQLLEEKKAAKNIMHNELNCTKSVSPMEDKVWSCCPKDWRLFGSHCYLVPTVSSSASWNKSEENCSRMGAHLVVIQSQEEQDFITGILDTHAAYFIGLWDTGHRQWQWVDQTPYEESITFWHNGEPSSGNEKCATIIYRWKTGWGWNDISCSLKQKSVCQMKKINL in your answer.
0.031
